biological target: T1, GPC3 on the surface of hepatic cancer cell lines (SK-Hep1-GPC3 transfectant, HepG2, Huh7, Hep3B, SNU398) (human, UniProt P51654 25-554); assay: FACS, SK-Hep1-GPC3 cells, 1 ug antibody; lower right panel
T1 construct: Species is not restated for the cells (hepatic cancer cell lines, or SK-Hep1 transfected with pCMV/GPC3); also called glypican 3
MEASURED QUANTITY: Mean, FL2-H
Would you mind answering with just the numeric figure?

// query Recorded Mean, FL2-H for GX270 clone antibody (purified anti-GPC3 antibody) (antibody, V domains shown, Purified antibody; also called GX270 antibody; GX270 candidate antibody) VH: QVQLVQSGAEVKKPGASVKVSCKTSGYTFTSSYMHWVRQAPGQGLEWMGIINPNSRGTNYAQKFQGRVTMTSDTSISTAYMELSSLISDDTAVYYCASSSGDYPDYWGQGTLVTVSS VL: SYELTQPPSVSVSPGQTARIACSGDALPKHYAYWYQQKSGQAPVLVVYEDKKRPAGIPERFSGSSSGTVATLTISGAQVEDEAHYYCYSTDTSGNHRVFGGGTKLTVLG , please?
// result 174

// query Param item = clone GX253 (scFv, V domains shown, scFv library clone tested as culture supernatant) VH: EVQLVESGGGLVKPGGSLRLSCAASGFTFSDYYMSWIRQAPGKGLEWVSYISSSGTTIYYADSVKGRFTISRDNAKKSLYLQMNSLRAEDTAVYYCARVRDSSGFWGRGTLVTVSS VL: QSVLTQPPSVSAAPGQKVTISCSGSSSNIGNNYVSWYQQLPGTAPKLLIYDNNKRPSGIPDRFSGSKSGTSATLGITGLQTGDEADYYCGTWDSSLSAWVVGGGTKLTVLG ; retrieve measured Mean, FL2-H.
// result 13.7
